# key: entry, value: ENDOHDL Test 2
Target desc: murine SR-BI (Mus musculus)
Construct: expressed in transfected cells; host or cells: ldlA-7 (LDL receptor deficient Chinese hamster ovary cells)
Assay comment: Uptake of DiI from DiI-HDL by ldlA[mSR-BI] cells (high throughput screen and concentration dependence)
Format: cell-based
Experimental context: Test 2
Just the number, please.

Known ENDOHDL Test 2 results, listed for orientation:
| Molecule | Endpoint label | Readout number |
| --- | --- | --- |
| CSc1sc(SC)c(C[n+]2ccccc2)c1C[n+]1ccccc1.[I-].[I-] [MIT 9952-85] | ENDOHDL Test 2 | 0.68 |
| COc1ccc(/C=C2/S/C(=N/c3ccccc3)NC2=O)c(OC)c1 [MIT 9952-88] | ENDOHDL Test 2 | 0.77 |
| CO/C(=N\C(NC(=S)Nc1ccc(Br)cc1)C(Cl)(Cl)Cl)c1ccc(C)cc1 (stereo not drawn) [MIT 9952-198] | ENDOHDL Test 2 | 0.64 |
| O=C(Nc1ccc(Cl)c(Cl)c1)c1ccccc1Br [MIT 9952-268] | ENDOHDL Test 2 | 0.65 |
| O=C(Nc1cccc(NC(=O)c2ccccc2Cl)c1)c1cccc([N+](=O)[O-])c1 [MIT 9952-213] | ENDOHDL Test 2 | 0.57 |
| Brc1ccc2c(c1)OCCSCCOCCOCCSCCO2 [MIT 9952-244] | ENDOHDL Test 2 | 0.54 |

[in] Which ENDOHDL Test 2 value belongs to O=C(O/N=C/c1ccc([N+](=O)[O-])o1)c1ccccc1 [MIT 9952-195] ?
[out] 1.35

[in] Which ENDOHDL Test 2 value belongs to CCOC(=O)c1sc(-c2ccccc2)nc1-c1ccc([N+](=O)[O-])cc1 [MIT 9952-165] ?
[out] 0.6

[in] Which ENDOHDL Test 2 value belongs to CN1CCc2c(c3ccccc3n2-c2ccccc2)C1.Cl [MIT 9952-197] ?
[out] 0.71

###

Target desc: murine SR-BI (Mus musculus)
Construct: expressed in transfected cells; host or cells: ldlA-7 (LDL receptor deficient Chinese hamster ovary cells)
Assay comment: Uptake of DiI from DiI-HDL by ldlA[mSR-BI] cells (high throughput screen and concentration dependence)
Type: cell-based
Experimental context: Test 2
Endpoint label: ENDOHDL Test 2
Just the number, please.

| Item smiles | ENDOHDL Test 2 |
| --- | --- |
| CCn1c(COC)c(-c2ccccc2)c2cc([N+](=O)[O-])ccc21 | 0.65 |
| O=C(O)c1ccc2c(c1)C(=O)N(c1ccc(C(=O)OCC(=O)c3ccccc3)cc1)C2=O | 1.35 |

Now look at this one.
[in] Which ENDOHDL Test 2 value belongs to CCOCc1c(C)cc(C)c(/C=N/Nc2ccc([N+](=O)[O-])cc2)c1C ?
[out] 0.62

###

# key: entry, value: ENDOHDL Test 1
Target desc: murine SR-BI (Mus musculus)
Construct: expressed in transfected cells; host or cells: ldlA-7 (LDL receptor deficient Chinese hamster ovary cells)
Assay comment: Uptake of DiI from DiI-HDL by ldlA[mSR-BI] cells (high throughput screen and concentration dependence)
Format: cell-based
Experimental context: Test 1

[in] Observed ENDOHDL Test 1 on murine SR-BI (Mus musculus) for O=C(C[n+]1ccc(CCSC2Cc3cccc4cccc2c34)cc1)c1ccc([N+](=O)[O-])cc1 (stereo not shown) , please.
[out] 0.64

[in] Observed ENDOHDL Test 1 on murine SR-BI (Mus musculus) for CCCCCCC1CCC/C1=N\NC(N)=S (stereo not shown) [MIT 9952-53] , please.
[out] 0.53

[in] Observed ENDOHDL Test 1 on murine SR-BI (Mus musculus) for C/C(=C\C(=O)NCCc1c[nH]c2ccccc12)C(=O)O , please.
[out] 1.25

[in] Observed ENDOHDL Test 1 on murine SR-BI (Mus musculus) for COc1cccc(NC(=O)c2sc(-c3ccccc3)nc2-c2ccc([N+](=O)[O-])cc2)c1 , please.
[out] 0.51

[in] Observed ENDOHDL Test 1 on murine SR-BI (Mus musculus) for COc1cc2c(-c3ccccc3)c(C)oc2cc1/C=N/NC(N)=S , please.
[out] 0.56

[in] Observed ENDOHDL Test 1 on murine SR-BI (Mus musculus) for O=C(Cl)c1ccccc1NS(=O)(=O)/C=C/c1ccccc1 [MIT 9952-4] , please.
[out] 1.17

[in] Observed ENDOHDL Test 1 on murine SR-BI (Mus musculus) for C/C(=N\NC(=O)c1ccccc1)c1ccccc1C(=O)O , please.
[out] 1.26

[in] Observed ENDOHDL Test 1 on murine SR-BI (Mus musculus) for CCOc1ccc(NC(=O)/C=C/c2cccc([N+](=O)[O-])c2)cc1 , please.
[out] 0.61

[in] Observed ENDOHDL Test 1 on murine SR-BI (Mus musculus) for CCOCc1c(C)cc(C)c(/C=N/Nc2ccc([N+](=O)[O-])cc2)c1C , please.
[out] 0.6

[in] Observed ENDOHDL Test 1 on murine SR-BI (Mus musculus) for CCCCN1CCC(O)(c2ccccc2)C(C(=O)c2ccccc2)C1 (stereo not shown) , please.
[out] 1.28

[in] Observed ENDOHDL Test 1 on murine SR-BI (Mus musculus) for COc1ccc2c(c1)c(C(C)=O)c(C)n2-c1ccccc1 , please.
[out] 0.57

###

# key: entry, value: ENDOHDL Test 1
Target desc: murine SR-BI (Mus musculus, UniProt Q61009)
Construct: expressed in transfected cells; host or cells: ldlA-7 (LDL receptor deficient Chinese hamster ovary cells)
Sequence (Q61009 1-509): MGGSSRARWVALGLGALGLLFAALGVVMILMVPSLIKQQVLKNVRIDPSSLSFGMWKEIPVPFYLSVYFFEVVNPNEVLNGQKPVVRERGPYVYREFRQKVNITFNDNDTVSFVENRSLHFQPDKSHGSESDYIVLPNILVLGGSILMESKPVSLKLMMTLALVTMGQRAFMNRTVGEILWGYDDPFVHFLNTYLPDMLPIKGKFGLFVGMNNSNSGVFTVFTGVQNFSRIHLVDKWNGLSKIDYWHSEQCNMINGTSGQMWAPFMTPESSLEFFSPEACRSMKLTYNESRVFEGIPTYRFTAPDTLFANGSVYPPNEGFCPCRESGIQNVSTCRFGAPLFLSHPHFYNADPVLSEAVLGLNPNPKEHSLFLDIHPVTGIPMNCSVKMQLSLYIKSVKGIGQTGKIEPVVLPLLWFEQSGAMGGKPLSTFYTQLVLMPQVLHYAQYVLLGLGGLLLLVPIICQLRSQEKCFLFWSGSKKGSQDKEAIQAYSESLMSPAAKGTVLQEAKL
Assay comment: Uptake of DiI from DiI-HDL by ldlA[mSR-BI] cells (high throughput screen and concentration dependence)
Format: cell-based
Experimental context: Test 1; DiI uptake from DiI-HDL, compounds at nominal 10 micromolar, ldlA[mSR-BI] cells

Known ENDOHDL Test 1 results, listed for orientation:
| Compound | ENDOHDL Test 1 |
| --- | --- |
| CC(C)(C)c1ccc(C(=O)Nc2cccc(NC(=O)c3cccc([N+](=O)[O-])c3)c2)cc1 | 0.63 |
| Br.NS(=O)(=O)c1ccc(Nc2nc(-c3ccc(Cl)cc3)cs2)cc1 | 0.69 |
| Cc1ccsc1/C=N/NC(=O)c1cccc([N+](=O)[O-])c1 | 0.46 |

[in] Which ENDOHDL Test 1 value belongs to Cc1cccc(C(=O)Nc2cccc(Cl)c2)c1 ?
[out] 0.64

[in] Which ENDOHDL Test 1 value belongs to O=C(O)c1cc(C(=O)O)nc(C(=O)O)c1 ?
[out] 1.13

[in] Which ENDOHDL Test 1 value belongs to Br.Oc1c(Br)cccc1CN(Cc1cc(Br)cc(Br)c1O)C1CCCCC1 ?
[out] 0.71

[in] Which ENDOHDL Test 1 value belongs to Cc1cc(O)nc2cc3oc4ccccc4c3cc12 ?
[out] 0.79

[in] Which ENDOHDL Test 1 value belongs to O=[N+]([O-])c1cccc(-c2ccc(C(=S)N3CCCCC3)o2)c1 ?
[out] 0.49

[in] Which ENDOHDL Test 1 value belongs to CCOC(=O)C1=C(C)NC(=S)N(C=O)C1c1ccccc1 (centres unmarked) ?
[out] 0.56

[in] Which ENDOHDL Test 1 value belongs to CCN1/C(=C\C(=O)c2ccc(C)cc2)Sc2ccccc21 ?
[out] 0.64

[in] Which ENDOHDL Test 1 value belongs to O=C(/C=C/C=C(Cl)Cl)c1ccc2c(c1)OCO2 ?
[out] 1.29

###

Target desc: murine SR-BI (Mus musculus)
Construct: expressed in transfected cells; host or cells: ldlA-7 (LDL receptor deficient Chinese hamster ovary cells)
Assay comment: Uptake of DiI from DiI-HDL by ldlA[mSR-BI] cells (high throughput screen and concentration dependence)
Format: cell-based
Experimental context: Test 2; DiI uptake from DiI-HDL, compounds at nominal 10 micromolar, ldlA[mSR-BI] cells
Would you mind labelling by ENDOHDL Test 2? At or over 0.6 is criterion met, under is criterion not met.

Record excerpt, results attached:
| Item smiles | Target desc | Label |
| --- | --- | --- |
| O=C(CSC1=NCCN1)Nc1ccccc1 | murine SR-BI (Mus musculus) | criterion not met |
| CCOC(=O)C1=C(c2ccc(Cl)cc2)C(=O)c2ccccc2C1=O | murine SR-BI (Mus musculus) | criterion not met |
| O=C(Nc1cccc(NC(=O)c2ccccc2Cl)c1)c1cccc([N+](=O)[O-])c1 | murine SR-BI (Mus musculus) | criterion not met |
| O=C(N/N=C/c1cc2c(cc1Br)OCO2)c1cccc(Cl)c1 | murine SR-BI (Mus musculus) | criterion not met |

[in] Is the recorded value of ENDOHDL Test 2 equal to or greater than 0.6 for this compound? Cc1cccc(C(=O)Nc2cccc(Cl)c2)c1
[out] criterion met

[in] Is the recorded value of ENDOHDL Test 2 equal to or greater than 0.6 for this compound? C/C(=N\NC(N)=S)c1ccc[nH]1
[out] criterion met

[in] Is the recorded value of ENDOHDL Test 2 equal to or greater than 0.6 for this compound? O=C(Nc1ccc2c(c1)OCO2)c1ccc2ccccc2c1
[out] criterion met
